# reported binding signal; entries follow
Target: RELARELA (p65 homodimer) (Homo sapiens, UniProt Q04206 1-307)
Sequence (Q04206 1-307): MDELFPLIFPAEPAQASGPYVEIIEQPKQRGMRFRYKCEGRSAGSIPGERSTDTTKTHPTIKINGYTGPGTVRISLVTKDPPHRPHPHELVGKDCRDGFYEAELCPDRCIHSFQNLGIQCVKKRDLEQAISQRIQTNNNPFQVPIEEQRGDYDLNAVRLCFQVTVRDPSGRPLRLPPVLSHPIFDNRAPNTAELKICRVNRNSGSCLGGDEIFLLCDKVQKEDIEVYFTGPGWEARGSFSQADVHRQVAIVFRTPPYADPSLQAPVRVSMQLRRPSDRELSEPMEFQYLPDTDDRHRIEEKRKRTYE
Assay: protein binding microarray; high values mean tight binding
Conditions: dsDNA, one strand shown

| Chain | binding signal [z-score] |
| --- | --- |
| CAGAGTGCCCT | -0.65 |
| GGATATCTCCC | 0.156 |
| GGAATGATCCC | -0.0862 |
| AGAGAACTCCT | -0.542 |
| GGAATACTCCC | 0.714 |
| CGAGACGTCCT | -0.768 |
| GAATTCACCCC | 0.545 |
| GAGTGCGCCCC | -0.402 |
| AAGTTATCCCC | 0.516 |
| GAGGTCCCCCT | 0.588 |
